# test_target: Fn14-TWEAK binding (Homo sapiens)
# Construct: the human Fc fragment-tagged Fn14 extracellular domain (R&D Systems) was captured; purchased R&D Systems (Fn14-Fc); Peprotech (recombinant TWEAK)
# Sequence (Q9NP84 28-80 limits assumed): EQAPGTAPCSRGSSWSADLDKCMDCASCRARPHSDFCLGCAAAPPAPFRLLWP
# method: Double sandwich ELISA small molecule screening of TWEAK binding to captured Fn14-Fc
# condition_details: Table 5, 25 μM, replicate 1; read-out: % Reduction in TWEAK Binding, Data 1
property_label: inhibition at 25 µM (%)
Give the value, in units of %, as a plain number.

These recorded examples may help you get a feel for the data.
- compound: "COc1cccc(NC(=O)CSc2nnc(-c3ccc(Cl)cc3)c(-c3ccc(Cl)cc3)n2)c1"
  display_unit: "%"
  result_number: 23.8
- compound: "O=C(CSc1nnc(-c2ccccc2)c(-c2ccccc2)n1)Nc1ccccc1"
  display_unit: "%"
  result_number: 14.7
- compound: "O=C(c1csc(S(=O)(=O)NCc2ccccn2)c1)N1CCCCCC1"
  display_unit: "%"
  result_number: 15.3

Give the measured inhibition at 25 µM of O=C(NC1CC1)c1cn(-c2cccc(Cl)c2)nn1 .
14.7

Looking for the measured inhibition at 25 µM of O=C(NCc1ccncc1)C1CCCN(c2nc3c(-c4ccccc4)csc3c(=O)[nH]2)C1 (centres unmarked) , can you help?
13.4

---

Overview of reported inhibition at 25 µM across a group of compounds:
# test_target: Fn14-TWEAK binding (Homo sapiens)
# Construct: the human Fc fragment-tagged Fn14 extracellular domain (R&D Systems) was captured; purchased R&D Systems (Fn14-Fc); Peprotech (recombinant TWEAK)
# method: Double sandwich ELISA small molecule screening of TWEAK binding to captured Fn14-Fc
# condition_details: Table 5, 25 μM, replicate 1; read-out: % Reduction in TWEAK Binding, Data 1
Use % as the unit, but write only the number.

Answered examples (3):
- compound: "COc1ccc(-c2nnc(SCC(=O)Nc3ccccc3OC)nc2-c2ccc(OC)cc2)cc1"
  result_number: 34.5
- compound: "C=CCSc1nnc(-c2ccccc2NC(=O)CC)c(O)n1"
  result_number: 15.5
- compound: "O=C1CN(C(=O)CSc2ccccc2)c2ccccc2N1"
  result_number: 20.9

Could you tell me which inhibition at 25 µM is on file for CCC(=O)Nc1ccccc1-c1nnc(SCC(=O)Nc2ccc(OC)cc2)[nH]c1=O ?
14.7

What value of measured inhibition at 25 µM is listed for O=C(NCc1n[nH]c(=O)c2ccccc12)C(=O)N1CCCCCC1 ?
20.8

What does the record list as inhibition at 25 µM for COc1ccc(C2N[C@H](C(=O)O)Cc3c2[nH]c2ccccc32)cc1O (stereo partly drawn) ?
0.98

Name the recorded inhibition at 25 µM for O=C(NCc1ccc(F)cc1)C1CCCN(c2nc3c(-c4ccccc4)csc3c(=O)[nH]2)C1 (stereo not drawn) .
28.1

Fill in: inhibition at 25 µM of CC(C)NC(=O)C(=O)NCc1n[nH]c(=O)c2ccccc12 is ___
12.8

Entry O=C(c1cn(-c2cccc(Cl)c2)nn1)N1CCSCC1 has what inhibition at 25 µM?
18.8

I'd like to know its inhibition at 25 µM. The compound in question is O=C(O)C[C@@H]1NC(=O)c2ccccc2NC1=O
14.3

inhibition at 25 µM lookup needed for COC(=O)[C@H]1Cc2c([nH]c3ccccc23)CN1 , thanks.
9.77

Reported inhibition at 25 µM, compound O=C(CSc1nc2c(cnn2-c2ccccc2)c(=O)[nH]1)NCc1ccc2c(c1)OCO2 : ____
26.3

Could you tell me which inhibition at 25 µM is on file for NC(=O)C1CCCN(c2nc3c(-c4ccccc4)csc3c(=O)[nH]2)C1 (stereo not drawn) ?
16.2

Can you look up the measured inhibition at 25 µM of CCS(=O)(=O)c1ccc(OCc2cc(=O)n3oc(C)cc3n2)c(NC(=O)COc2ccccc2C)c1 for me?
22.2

# get_value(readout='inhibition at 25 µM', item= COc1ccc(-c2nnc(SCC(=O)Nc3cccc4ccccc34)nc2-c2ccccc2)cc1 )
18.6

Could you share which inhibition at 25 µM value was measured for O=C(NCc1ccccc1)C(=O)NCc1n[nH]c(=O)c2ccccc12 ?
13.2

What measured inhibition at 25 µM goes with Cc1cccc(-n2c(=O)c3[nH]c4ccccc4sc=3c2=O)c1 ?
35.6

Which inhibition at 25 µM value is on record for O=C(c1cn(-c2cccc(Cl)c2)nn1)N1CCCC1 ?
17

---

# test_target: Fn14-TWEAK binding (Homo sapiens)
# Construct: the human Fc fragment-tagged Fn14 extracellular domain (R&D Systems) was captured; purchased R&D Systems (Fn14-Fc); Peprotech (recombinant TWEAK)
# method: Double sandwich ELISA small molecule screening of TWEAK binding to captured Fn14-Fc
# condition_details: Table 5, 25 μM, replicate 2; read-out: % Reduction in TWEAK Binding, Data 2
property_label: inhibition at 25 µM (%)
Answer format: numeric, % implied, no suffix.

- molecule: "CCC(=O)Nc1ccccc1-c1nnc(SC(CC)C(=O)Nc2cccc(OC)c2)[nH]c1=O (centres unmarked) [Compound F151-0392]"
  display_unit: "%"
  result_number: 14.2
- molecule: "CCS(=O)(=O)c1ccc(OCc2cc(=O)n3oc(C)cc3n2)c(NC(=O)COc2ccccc2C)c1"
  display_unit: "%"
  result_number: 17.1
- molecule: "O=C(NCc1ccccc1)C(=O)NCc1n[nH]c(=O)c2ccccc12 [Compound F044-0075]"
  display_unit: "%"
  result_number: 12.8
- molecule: "O=C(NCc1cccnc1)C(=O)NCc1n[nH]c(=O)c2ccccc12 [Compound F044-0083]"
  display_unit: "%"
  result_number: 10.8
- molecule: "COc1ccc(-c2nnc(SCC(=O)Nc3ccccc3OC)nc2-c2ccc(OC)cc2)cc1 [Compound 3809-1067]"
  display_unit: "%"
  result_number: 29.8

What does the data say about its inhibition at 25 µM? Entry: O=C(CSc1nc2c(cnn2-c2ccccc2)c(=O)[nH]1)NCc1ccc(F)cc1 [Compound G873-0031]
8.06

Need inhibition at 25 µM of O=C(NCc1ccc(F)cc1)C1CCCN(c2nc3c(-c4ccccc4)csc3c(=O)[nH]2)C1 (centres unmarked) , thanks.
15.9

Given COc1cccc(NC(=O)CSc2nnc(-c3ccc(Cl)cc3)c(-c3ccc(Cl)cc3)n2)c1 [Compound K216-0957] , state its recorded inhibition at 25 µM.
24.3

---

# test_target: Fn14-TWEAK binding (Homo sapiens, UniProt Q9NP84)
# Construct: the human Fc fragment-tagged Fn14 extracellular domain (R&D Systems) was captured; purchased R&D Systems (Fn14-Fc); Peprotech (recombinant TWEAK)
# method: Double sandwich ELISA small molecule screening of TWEAK binding to captured Fn14-Fc
# condition_details: Table 4, second screening iteration, 25 μM, replicate 1; read-out: % Reduction in TWEAK Binding, Data 1
Classification field: enter Met for inhibition at 25 µM values not below 20%, Not met for values below it.

API: above_or_equal(metric=inhibition at 25 µM, cutoff=20%) for item COc1cccc(NC(=O)CSc2nnc(-c3ccccc3)c(-c3ccccc3)n2)c1 [Compound K784-2273]
Not met

---

# test_target: Fn14-TWEAK binding (Homo sapiens)
# Construct: the human Fc fragment-tagged Fn14 extracellular domain (R&D Systems) was captured; purchased R&D Systems (Fn14-Fc); Peprotech (recombinant TWEAK)
# Sequence (Q9NP84 28-80 limits assumed): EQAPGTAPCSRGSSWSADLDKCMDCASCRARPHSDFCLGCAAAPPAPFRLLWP
# method: Double sandwich ELISA small molecule screening of TWEAK binding to captured Fn14-Fc
# condition_details: Table 4, second screening iteration, 25 μM, replicate 1; read-out: % Reduction in TWEAK Binding, Data 1
property_label: inhibition at 25 µM (%)
Express the result in % but write the number alone.

Worked cases, answers included:
- chemical_string: "COc1cccc(NC(=O)CSc2nnc(-c3ccc(F)cc3)c(-c3ccc(F)cc3)n2)c1"
  test_target: "Fn14-TWEAK binding (Homo sapiens)"
  property_label: "inhibition at 25 µM"
  display_unit: "%"
  result_number: 17.2
- chemical_string: "O=C(CSc1nnc(-c2ccccc2)c(-c2ccccc2)n1)Nc1ccc(S(=O)(=O)Nc2nccs2)cc1"
  test_target: "Fn14-TWEAK binding (Homo sapiens)"
  property_label: "inhibition at 25 µM"
  display_unit: "%"
  result_number: 11.3
- chemical_string: "O=C(c1cn(-c2cccc(Cl)c2)nn1)N1CCCC1"
  test_target: "Fn14-TWEAK binding (Homo sapiens)"
  property_label: "inhibition at 25 µM"
  display_unit: "%"
  result_number: 17

Value lookup for inhibition at 25 µM; key = Cc1cc(NC(=O)CSc2ccccc2)ccc1Cl
21.9

Source listed as patent US9238034B2.
